# subject of test: JAK1 (Homo sapiens, UniProt P23458)
# Construct: 5 μl of catalytic domain recombinant Kinase enzyme+Tyr peptide substrate (Invitrogen, CA)
# Sequence (P23458 875-1153 limits assumed): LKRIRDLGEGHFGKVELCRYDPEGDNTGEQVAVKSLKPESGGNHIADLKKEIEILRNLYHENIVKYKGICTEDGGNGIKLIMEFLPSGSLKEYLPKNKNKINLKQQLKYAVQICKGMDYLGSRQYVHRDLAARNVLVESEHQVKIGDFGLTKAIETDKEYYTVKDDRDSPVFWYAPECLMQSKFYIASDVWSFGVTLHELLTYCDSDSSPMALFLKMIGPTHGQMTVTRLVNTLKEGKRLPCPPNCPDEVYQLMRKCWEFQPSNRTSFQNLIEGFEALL
# measurement description: Z'-LYTE kinase assay JAK1
pIC50: −log10 of the molar value.
metric name: pIC50

Use the examples below as a reference point.
| smiles notation | metric name | recorded result |
| --- | --- | --- |
| NC(=O)c1cnc(Nc2ccc(C3CCOCC3)cc2)cc1NCC1CCOCC1 | pIC50 | < 6.00 |
| CC(=O)N1CCN(c2ccc(Nc3cc(NCc4ccccc4)c(C(N)=O)cn3)cc2C)CC1 | pIC50 | 6.00 to 7.00 |
| NC(=O)c1cnc(Nc2ccc(N3CCCCC3=O)cc2)cc1NCc1cccc(F)c1 | pIC50 | 6.00 to 7.00 |

Quick one: pIC50 of CN(C)C(=O)N1CCC(c2ccc(Nc3cc(NCc4ccccc4F)c(C(N)=O)cn3)cc2)CC1 ?
< 6.00

Find the recorded pIC50 belonging to NC(=O)c1cnc(Nc2cccc(N3CCOCC3)c2)cc1NCc1cccc(F)c1 and report it.
6.00 to 7.00

Please look up its pIC50: CC(=O)N1CCN(c2ccc(Nc3cc(NC4(c5ccccc5)CC4)c(C(N)=O)cn3)cc2)CC1
< 6.00

For the molecule shown here, NC(=O)c1cnc(Nc2ccc(N3CCCCC3=O)cc2)cc1NCc1cc(F)ccc1F , give the reported pIC50.
6.00 to 7.00

Find the recorded pIC50 belonging to NC(=O)c1cnc(Nc2cccc(N3CCOCC3)c2)cc1NC1(c2ccccc2)CC1 and report it.
< 6.00

May I ask what pIC50 has been recorded for N#Cc1ccc(Nc2cc(NCc3ccccc3)c(C(N)=O)cn2)cc1 ?
< 6.00

Dear colleague, I am looking for the recorded pIC50 of the following molecule: CN(C)S(=O)(=O)Cc1ccc(Nc2cc(NCc3cccc(-c4ccncc4)c3)c(C(N)=O)cn2)cc1
6.00 to 7.00

###

# key: entry, value: pIC50
# subject of test: JAK2 (Homo sapiens)
# Construct: 5 μl of catalytic domain recombinant Kinase enzyme+Tyr peptide substrate (Invitrogen, CA)
# Sequence (O60674 849-1124 limits assumed): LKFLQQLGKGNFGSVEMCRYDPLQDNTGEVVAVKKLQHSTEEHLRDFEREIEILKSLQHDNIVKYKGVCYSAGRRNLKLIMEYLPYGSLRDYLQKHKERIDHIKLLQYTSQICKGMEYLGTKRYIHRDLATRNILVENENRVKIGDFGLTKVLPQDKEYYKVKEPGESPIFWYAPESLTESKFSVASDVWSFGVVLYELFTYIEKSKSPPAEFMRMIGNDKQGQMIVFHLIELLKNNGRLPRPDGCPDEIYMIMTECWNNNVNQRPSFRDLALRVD
# measurement description: Z'-LYTE kinase assay JAK2
pIC50: −log10 of the molar value.

| compound | subject of test | pIC50 |
| --- | --- | --- |
| NC(=O)c1cnc(Nc2ccc(C3CNC3)cc2)cc1NCc1cc(F)ccc1F [Example 213] | JAK2 (Homo sapiens) | 7.00 to 8.00 |
| CN(C)C(=O)c1ccc(Nc2cc(NCc3ccncn3)c(C(N)=O)cn2)cc1 [Example 299] | JAK2 (Homo sapiens) | < 6.00 |

API: the following record is the query input.
Consider the compound COCC(=O)N1CC(c2ccc(Nc3cc(NCc4cccc5[nH]ccc45)c(C(N)=O)cn3)cc2)C1 [Example 494] and give its measured pIC50.
8.00 to 9.00

###

Listed here are compounds together with their documented IC50.
# subject of test: JAK3 (Homo sapiens, UniProt P52333)
# Construct: 5 μl of catalytic domain recombinant Kinase enzyme+Tyr peptide substrate (Invitrogen, CA)
# Sequence (P52333 822-1111 limits assumed): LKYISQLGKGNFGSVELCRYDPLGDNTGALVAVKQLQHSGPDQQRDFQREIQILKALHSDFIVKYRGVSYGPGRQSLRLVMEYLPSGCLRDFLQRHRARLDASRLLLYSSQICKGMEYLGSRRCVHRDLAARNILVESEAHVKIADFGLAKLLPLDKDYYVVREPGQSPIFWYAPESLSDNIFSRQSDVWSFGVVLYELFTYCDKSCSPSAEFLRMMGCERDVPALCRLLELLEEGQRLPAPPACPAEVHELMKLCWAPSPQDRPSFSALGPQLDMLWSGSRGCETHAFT
# measurement description: Z'-LYTE kinase assay JAK3

Solved cases below.
| smiles notation | subject of test | recorded result |
| --- | --- | --- |
| NC(=O)c1cnc(Nc2ccc(S(=O)(=O)N3CCC3)cc2)nc1NCc1ccccc1 | JAK3 (Homo sapiens, UniProt P52333) | 0.01 to 0.1 µM |
| CC(=O)N1CCN(c2ccc(Nc3cc(NCc4ccc(F)cc4F)c(C(N)=O)cn3)cc2)CC1 | JAK3 (Homo sapiens, UniProt P52333) | 0.01 to 0.1 µM |
| CC(=O)N1CCN(c2ccc(Nc3ncc(C(N)=O)c(NCc4cccc(F)c4)c3Cl)cc2)CC1 | JAK3 (Homo sapiens, UniProt P52333) | 0.1 to 1 µM |
| CN(C)C(=O)c1ccc(Nc2cc(NCc3cccc(-n4ccnc4)c3)c(C(N)=O)cn2)cc1 | JAK3 (Homo sapiens, UniProt P52333) | 0.001 to 0.01 µM |
| NC(=O)c1cnc(Nc2cccc(OCCN3CCCC3)c2)cc1NCc1ccccc1F | JAK3 (Homo sapiens, UniProt P52333) | 0.001 to 0.01 µM |

Which IC50 is listed for CS(=O)(=O)c1ccc(Nc2cc(NCc3cccc(-c4cccnc4)c3)c(C(N)=O)cn2)cc1 ?
0.01 to 0.1 µM

Which IC50 is listed for NC(=O)c1cnc(Nc2ccc(C3CCOCC3)cc2)cc1NCc1nccs1 ?
0.01 to 0.1 µM

Which IC50 value belongs to NC(=O)c1cnc(Nc2ccc(OCC(=O)N3CCOCC3)cc2)cc1NC1(c2ccccc2)CC1 ?
0.01 to 0.1 µM
